// data source = the supplement of paper PMC10567573

Kindly state protein stability index for each of the entries shown.
B1: PTPN9 (parent)
chain: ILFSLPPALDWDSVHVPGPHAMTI

variants of: B1; assay: protein stability index of a GFP-peptide fusion (GPS, HEK-293T) (PSI 1-6); higher = more stable; details: c terminus: a fixed tail appended;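 also: lentivirally expressed fusions sorted by FACS into six bins by GFP to DsRed ratio, PSI derived from sequencing read proportions per bin multiplied by bin number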
One number for each entry.

Check out these entries, answers already filled in.
(Q) Give its protein stability index value. Item: I24P
(A) 1.85

(Q) Give its protein stability index value. Item: S4P
(A) 2.01

(Q) Give its protein stability index value. Item: L5H
(A) 1.76

(Q) Give its protein stability index value. Item: I24T
(A) 1.97

(Q) Give its protein stability index value. Item: M22R
(A) 1.86

(Q) Give its protein stability index value. Item: A21V
(A) 4.21

(Q) Give its protein stability index value. Item: I1K
(A) 2.24

(Q) Give its protein stability index value. Item: D12P
(A) 4.93

Count: 5. Required value per item: protein stability index.
1. S13L
2. P19W
3. D12T
4. V16H
5. P17M

(A)
1: 2.65; 2: 2.19; 3: 2.37; 4: 2.2; 5: 3.11
